pIC50 values for the compounds below.
target: UniProtKB P00735; assay: Inhibition of plasma fibrin clot formation by thrombin in vitro.
pIC50: −log10 of the molar value. Square brackets hold non-standard residues; d marks the D form. Peptide text beside a SMILES is read from it. sY = N[C@@H](Cc1ccc(OS(=O)(=O)O)cc1)C(=O)O

GET /values?readout=pIC50&item= CC[C@H](C)[C@H](NC(=O)[C@H](CCC(=O)O)NC(=O)[C@H](CCC(=O)O)NC(=O)[C@H](Cc1ccccc1)NC(=O)[C@@H](N)CC(=O)O)C(=O)N1CCC[C@H]1C(=O)N[C@@H](CCC(=O)O)C(=O)N[C@@H](CCC(=O)O)C(=O)N[C@@H](Cc1ccc(OS(=O)(=O)O)cc1)C(=O)N[C@@H](C)C(=O)N[C@@H](CCC(N)=O)C(=O)O (H-DFEEIPEE[sY]AQ-OH)
< 3.70

Dear colleague, I am looking for the recorded pIC50 of the following compound: CC(C)CC(NC(=O)[C@H](Cc1ccc(OS(=O)(=O)O)cc1)NC(=O)[C@H](CCC(=O)O)NC(=O)[C@H](CCC(=O)O)NC(=O)[C@@H]1CCCN1C(=O)C(CC(C)C)NC(=O)[C@H](CCC(=O)O)NC(=O)[C@H](CCC(=O)O)NC(=O)[C@H](Cc1ccccc1)NC(=O)[C@@H](N)CC(=O)O)C(=O)N[C@@H](C)C(=O)O (stereo in doubt)
< 3.70

Attention now shifts to the item below.
Give the measured pIC50 of CC[C@H](C)[C@H](NC(=O)[C@H](CCC(=O)O)NC(=O)[C@H](CCC(=O)O)NC(=O)[C@H](Cc1ccccc1)NC(=O)[C@@H](N)CC(=O)O)C(=O)N1CCC[C@H]1C(=O)N[C@@H](C)C(=O)N[C@@H](CCC(=O)O)C(=O)N[C@@H](Cc1ccc(OS(=O)(=O)O)cc1)C(=O)N[C@@H](CC(C)C)C(=O)N[C@@H](CCC(N)=O)C(=O)O (H-DFEEIPAE[sY]LQ-OH) .
4.73

* * *

biological target: Prothrombin (Bos taurus); experiment: Relative potency for fibrin clot inhibition compared to hirudin55-65.; format: functional; design: unit not given here
Square brackets hold non-standard residues; d marks the D form. Peptide text beside a SMILES is read from it. sY = N[C@@H](Cc1ccc(OS(=O)(=O)O)cc1)C(=O)O
measured-metric: Relative potency
Reply: number alone, nothing else.

For the record CC[C@H](C)[C@H](NC(=O)[C@H](CCC(=O)O)NC(=O)[C@H](CCC(=O)O)NC(=O)[C@H](Cc1ccccc1)NC(=O)[C@@H](N)CC(=O)O)C(=O)N1CCC[C@H]1C(=O)N[C@@H](CCC(=O)O)C(=O)N[C@@H](C)C(=O)N[C@@H](Cc1ccc(OS(=O)(=O)O)cc1)C(=O)N[C@@H](CC(C)C)C(=O)N[C@@H](CCC(N)=O)C(=O)O (H-DFEEIPEA[sY]LQ-OH) , what value of Relative potency is listed for Prothrombin (Bos taurus)?
17

* * *

biological target: Prothrombin (Bos taurus) (UniProt P00735); experiment: Relative potency for fibrin clot inhibition compared to hirudin55-65.; assay type: functional; parameters: unit not given here
Square brackets hold non-standard residues; d marks the D form. Peptide text beside a SMILES is read from it. sY = N[C@@H](Cc1ccc(OS(=O)(=O)O)cc1)C(=O)O
measured-metric: Relative potency
Form: value (number only, do not type unit).

Give the measured Relative potency of CC[C@H](C)[C@H](NC(=O)[C@H](CCC(=O)O)NC(=O)[C@H](CCC(=O)O)NC(=O)[C@H](Cc1ccccc1)NC(=O)[C@@H](N)CC(=O)O)C(=O)N1CCC[C@H]1C(=O)N[C@@H](C)C(=O)N[C@@H](CCC(=O)O)C(=O)N[C@@H](Cc1ccc(OS(=O)(=O)O)cc1)C(=O)N[C@@H](CC(C)C)C(=O)N[C@@H](CCC(N)=O)C(=O)O (H-DFEEIPAE[sY]LQ-OH) .
38

Could you now look at the following compound, please?
# input compound: CC[C@H](C)[C@H](NC(=O)[C@H](CCC(=O)O)NC(=O)[C@H](CCC(=O)O)NC(=O)[C@H](Cc1ccccc1)NC(=O)[C@@H](N)CC(=O)O)C(=O)N1CCC[C@H]1C(=O)N[C@@H](CCC(=O)O)C(=O)N[C@@H](CCC(=O)O)C(=O)N[C@@H](CCC(=O)O)C(=O)N[C@@H](CC(C)C)C(=O)N[C@@H](C)C(=O)O (H-DFEEIPEEELA-OH) ; wanted: its Relative potency
12

Values were extracted from ChEMBL document CHEMBL1123843.
